target: OCT1 (Homo sapiens, UniProt O15245); assay: OCT1 activity: DAPI accumulation in HEK-OCT1 cells; conditions: IC50 for OCT1 inhibition, HEK-OCT1 cells, DAPI
Sequence (O15245 whole entry): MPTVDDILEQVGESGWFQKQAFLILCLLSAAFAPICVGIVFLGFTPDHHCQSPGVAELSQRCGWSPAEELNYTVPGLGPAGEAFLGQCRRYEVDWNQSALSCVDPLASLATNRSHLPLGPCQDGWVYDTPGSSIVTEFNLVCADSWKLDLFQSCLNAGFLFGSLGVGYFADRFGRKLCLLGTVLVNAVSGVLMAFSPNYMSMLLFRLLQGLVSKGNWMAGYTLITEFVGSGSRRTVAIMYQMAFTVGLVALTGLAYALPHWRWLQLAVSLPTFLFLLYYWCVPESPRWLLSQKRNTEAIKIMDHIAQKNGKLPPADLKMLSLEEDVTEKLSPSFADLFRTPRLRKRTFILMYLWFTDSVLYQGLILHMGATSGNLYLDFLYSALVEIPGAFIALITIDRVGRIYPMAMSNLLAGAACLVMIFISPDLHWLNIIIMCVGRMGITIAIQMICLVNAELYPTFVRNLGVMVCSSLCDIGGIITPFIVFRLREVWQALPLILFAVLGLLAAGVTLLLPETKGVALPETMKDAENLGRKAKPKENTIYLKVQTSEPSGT
Provide the recorded pIC50 for the entries that follow.
Give bare numbers, as −log10 of the molar value.

CC(C)=CC1C(C(=O)OCN2C(=O)C3=C(CCCC3)C2=O)C1(C)C (centres unmarked)    5.31

Look up pIC50 with OCT1 (Homo sapiens, UniProt O15245) for this compound: C=CCC1=C(C)C(OC(=O)C2C(C=C(C)C)C2(C)C)CC1=O (centres unmarked)
5.59

###

Target: OAT1 (Homo sapiens)
Construct: host or cells: HEK293
Sequence (Q4U2R8 1-563): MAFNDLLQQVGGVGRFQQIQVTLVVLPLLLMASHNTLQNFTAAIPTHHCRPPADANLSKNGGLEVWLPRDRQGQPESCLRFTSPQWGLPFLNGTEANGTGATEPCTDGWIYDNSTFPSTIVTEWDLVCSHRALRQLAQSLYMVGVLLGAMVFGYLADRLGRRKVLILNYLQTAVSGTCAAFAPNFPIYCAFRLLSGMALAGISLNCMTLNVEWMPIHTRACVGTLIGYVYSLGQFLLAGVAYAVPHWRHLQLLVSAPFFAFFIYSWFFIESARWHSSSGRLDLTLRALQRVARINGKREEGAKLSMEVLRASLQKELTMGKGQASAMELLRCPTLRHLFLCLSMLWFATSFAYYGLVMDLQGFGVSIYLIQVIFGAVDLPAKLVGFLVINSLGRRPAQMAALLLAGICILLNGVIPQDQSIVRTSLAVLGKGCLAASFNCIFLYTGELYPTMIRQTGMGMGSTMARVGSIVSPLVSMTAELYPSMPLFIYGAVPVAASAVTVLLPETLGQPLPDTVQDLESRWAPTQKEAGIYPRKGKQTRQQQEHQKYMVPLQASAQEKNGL
Assay: OAT1 activity: fluorescein accumulation in HEK-OAT1 cells
Assay type: cell-based
Settings: human, pH 7.4; pyrethroid 100 μM; HEK-OAT1 cells, fluorescein
measured-quantity: inhibition at 100 μM (%)
Answers are plain numbers, in %.

Which measured inhibition at 100 μM belongs to CC(C)[C@@H](Nc1ccc(C(F)(F)F)cc1Cl)C(=O)OC(C#N)c1cccc(Oc2ccccc2)c1 (stereo partly shown) [τ-fluvalinate] , tested on OAT1 (Homo sapiens)?
42.8

Values were extracted from paper PMC5242521.
